Experiment: Half life in mouse
Format: ADME, organism-based
Conditions: in vivo
Endpoint Label: half-life

If you can, please state the reported half-life value of CCOc1cc(C(C)(C)C)ccc1C1=N[C@@H](c2ccc(Cl)cc2)[C@@H](c2ccc(Cl)cc2)N1C(=O)N1CCN(CC(=O)NCCOCCOCCOCCNC(=O)CN2CCN(C(=O)N3C(c4ccc(C(C)(C)C)cc4OCC)=N[C@H](c4ccc(Cl)cc4)[C@@H]3c3ccc(Cl)cc3)CC2=O)C(=O)C1 .
9.6 h

Attribution: ChEMBL document CHEMBL5223100
